Origin of values: PubChem BioAssay (NCI)

- PROTOCOL SUMMARY: NCI Yeast Anticancer Drug Screen. Data for the rad50EPP+ strain (AID 151);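 note: 0% = growth of vehicle-treated control cultures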
- TEST PARAMETERS: S. cerevisiae rad50 mutant strain, at 11.0 µM, hits give high values
The panel holds about 79,000 compounds, 15% with a hit somewhere; the sample as a whole holds those more often.
EXPERIMENTAL READOUT: growth inhibition (%)
Form entry: value (%) — number only.

Below: 3 compounds and their reported growth inhibition.
> print(dat)
                                   compound  experimental.readout  unit.text  value
1  COc1ccc2nc3c([N+](=O)[O-])ccc(NCCN(C)C)c3c(NCCN(C)C)c2c1     growth inhibition          %      1
2  O=[N+]([O-])c1cccc([N+](=O)[O-])c1S(=O)(=O)c1ccccc1     growth inhibition          %     93
3            CC(C)/C(Cl)=N\OC(=O)Nc1ccccc1F     growth inhibition          %     46

Entry COC(=O)c1ccc([N+](=O)[O-])c(O)c1 , growth inhibition reported as 3

For O=C1c2cc([N+](=O)[O-])ccc2-c2cccc(F)c21 the compound record lists growth inhibition as 49

The reported value for C=CCC1=C(C)C(OC(=O)/C=C/c2ccccc2)CC1=O (stereo unspecified) in terms of growth inhibition is 6

Lab note: Cc1cccc2c(C(O)CBr)cc(-c3ccc(Cl)cc3)nc12 (stereo unspecified) gave growth inhibition of 32

// field: growth inhibition; key: COc1ccc(NC(=S)N/N=C(\c2ccccc2)c2ccccn2)cc1 ; value = 5

// growth inhibition value for COc1cc(CC2CC(c3ccc4c(c3)OCO4)OC2=O)cc(OC)c1OC (stereo unspecified) : 0

// growth inhibition lookup, compound = CC1(C)[C@@H]2CC[C@]1(C)[C@H](OC(=O)CSC#N)C2 , result: 9

Per the record, CCCCCCCCCCCC1=C(O)C(=O)C=C(O)C1=O has growth inhibition of 31
